# reported inhibition at 1085 µM (stock); entries follow
biological target: His6 tagged human recombinant FABP4 (Homo sapiens); construct: purchased Cayman Chemicals 10009549; experiment: FABP4 TR-FRET assay: displacement of fluorescent fatty acid BODIPY FL C12; details: inhibition of BODIPY FL C12 binding to His6-FABP4; 1.2 μL of 1.085 mM compound in DMSO per well; triplicates, mean percent inhibition
Sequence (P15090 whole entry): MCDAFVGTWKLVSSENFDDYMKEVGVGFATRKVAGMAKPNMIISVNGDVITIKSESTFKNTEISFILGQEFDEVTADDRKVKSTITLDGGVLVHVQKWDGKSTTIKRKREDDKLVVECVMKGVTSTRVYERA
READOUT: inhibition at 1085 µM (stock) (%)

- MOLECULE: "CN(CC(=O)O)c1cc(-c2ccccc2)c2cc(CCc3cnc4ccccc4n3)ccc2n1"
  TESTED TARGET: "His6 tagged human recombinant FABP4 (Homo sapiens)"
  UNIT SYMBOL: "%"
  REPORTED MEASUREMENT: 33.6
- MOLECULE: "CCCc1ccc2nc(OCC(=O)O)cc(-c3ccccc3)c2c1"
  TESTED TARGET: "His6 tagged human recombinant FABP4 (Homo sapiens)"
  UNIT SYMBOL: "%"
  REPORTED MEASUREMENT: 33.8
- MOLECULE: "CCCCC(=O)Nc1ccc2nc(N(C)CC(=O)O)cc(-c3ccccc3)c2c1"
  TESTED TARGET: "His6 tagged human recombinant FABP4 (Homo sapiens)"
  UNIT SYMBOL: "%"
  REPORTED MEASUREMENT: 28.7
- MOLECULE: "CCCc1ccc2nc(OCC(=O)O)cc(-c3cccc(C(N)=O)c3)c2c1"
  TESTED TARGET: "His6 tagged human recombinant FABP4 (Homo sapiens)"
  UNIT SYMBOL: "%"
  REPORTED MEASUREMENT: 42.9
- MOLECULE: "CCCCCCc1ccc2nc(N(C)CC(=O)O)ccc2c1"
  TESTED TARGET: "His6 tagged human recombinant FABP4 (Homo sapiens)"
  UNIT SYMBOL: "%"
  REPORTED MEASUREMENT: 53.3
- MOLECULE: "CC(C)(c1cc(-c2ccccc2)c2cc(CCc3ccccc3)ccc2n1)c1nnn[nH]1"
  TESTED TARGET: "His6 tagged human recombinant FABP4 (Homo sapiens)"
  UNIT SYMBOL: "%"
  REPORTED MEASUREMENT: 75
- MOLECULE: "CCCCCCCCc1ccc2nc(N(C)CC(=O)O)cc(Oc3ccc(F)cc3)c2c1"
  TESTED TARGET: "His6 tagged human recombinant FABP4 (Homo sapiens)"
  UNIT SYMBOL: "%"
  REPORTED MEASUREMENT: 78.7
- MOLECULE: "CN(CC(=O)O)c1cc(-c2ccccc2)c2cc(CCc3ccc4ncccc4c3)ccc2n1"
  TESTED TARGET: "His6 tagged human recombinant FABP4 (Homo sapiens)"
  UNIT SYMBOL: "%"
  REPORTED MEASUREMENT: 34.7
- MOLECULE: "CN(CC(=O)O)c1cc(-c2ccccc2)c2cc(CCc3cncnc3)ccc2n1"
  TESTED TARGET: "His6 tagged human recombinant FABP4 (Homo sapiens)"
  UNIT SYMBOL: "%"
  REPORTED MEASUREMENT: 13.2
- MOLECULE: "CN(CCc1ccc2nc(N(C)CC(=O)O)cc(-c3ccccc3)c2c1)c1ccccc1"
  TESTED TARGET: "His6 tagged human recombinant FABP4 (Homo sapiens)"
  UNIT SYMBOL: "%"
  REPORTED MEASUREMENT: 55.9
- MOLECULE: "CCCCCCCCc1ccc2nc(N(CC(=O)O)CC(C)C)cc(-c3ccc(F)cc3)c2c1"
  TESTED TARGET: "His6 tagged human recombinant FABP4 (Homo sapiens)"
  UNIT SYMBOL: "%"
  REPORTED MEASUREMENT: 68
- MOLECULE: "CN(CC(=O)O)c1cc(-c2ccccc2)c2cc(CCc3ccc(Cl)cc3)ccc2n1"
  TESTED TARGET: "His6 tagged human recombinant FABP4 (Homo sapiens)"
  UNIT SYMBOL: "%"
  REPORTED MEASUREMENT: 56.4
- MOLECULE: "CN(CC(=O)O)c1cc(-c2ccccc2)c2cc(CCc3ccc4c(c3)CCCN4)ccc2n1"
  TESTED TARGET: "His6 tagged human recombinant FABP4 (Homo sapiens)"
  UNIT SYMBOL: "%"
  REPORTED MEASUREMENT: 44.7
- MOLECULE: "O=C(O)C1CC(=O)N(c2cc(-c3ccccc3)c3cc(CCc4ccccc4)ccc3n2)C1 (stereo not shown)"
  TESTED TARGET: "His6 tagged human recombinant FABP4 (Homo sapiens)"
  UNIT SYMBOL: "%"
  REPORTED MEASUREMENT: 7.89
- MOLECULE: "CN(CC(=O)O)c1cc(-c2ccccc2)c2cc(Br)ccc2n1"
  TESTED TARGET: "His6 tagged human recombinant FABP4 (Homo sapiens)"
  UNIT SYMBOL: "%"
  REPORTED MEASUREMENT: 109
- MOLECULE: "CCCCc1ccc2nc(N(C)CC(=O)O)cc(-c3cccnc3)c2c1"
  TESTED TARGET: "His6 tagged human recombinant FABP4 (Homo sapiens)"
  UNIT SYMBOL: "%"
  REPORTED MEASUREMENT: 39.2
